assay: Human HepG2 cell viability assay in 384 well format; type: toxicity, cell-based; design: dose 125 nL, time 70.5 hour; concentration not given beside the values; settings: HepG2 cells, read-out: Inhibition
measured parameter: cytotoxicity at 70.5 h (%)
State just the number; it will be interpreted in %.

Examples from the recorded data:
compound: CC(C)Nc1ncccc1C(=O)NCc1cnc(N(C)C)n1C
cytotoxicity at 70.5 h [%]: -14.4
--
compound: CNC(=O)COc1ccc(CNCc2cc(F)ccc2F)cc1
cytotoxicity at 70.5 h [%]: -2.81
--
compound: CC(C)(C)n1ncc2c(=O)[nH]c(N3CCN(CCO)CC3)nc21
cytotoxicity at 70.5 h [%]: -1.33

In: Entry C[C@H]1CN2C[C@H](O)CC2CN1Cc1ccncc1 (stereo partly specified) : reported cytotoxicity at 70.5 h = ?
Out: -1.34

In: Next up: C=Cn1cc(CN2CCN(CC3(c4ccccc4)CC3)CC2)c(C)n1
Out: -2.78

In: Next up: Cc1cnn(CC2CCCN2Cc2nc(N)c3ccccc3n2)c1 (stereo unspecified)
Out: 45.2

The reported measurements were obtained from ChEMBL document CHEMBL3507680.
